Each recorded value in this set is attributed to patent US20260001911A1.

test system: Lung adenocarcinoma cell A549; test: cells; conditions: Homo sapiens, A549, 72 h, read-out: IC50 A549
Readout: pIC50
FYI, pIC50 means -log10 of a concentration in mol per litre.

-- ask Entry COc1cc([C@@H]2c3cc4c(cc3[C@@H](O[C@@H]3O[C@@H]5CO[C@@H](C)O[C@H]5[C@H](O)[C@H]3O)[C@H]3COC(=O)[C@H]23)OCO4)cc(OC)c1O [Etoposide, reference compound] : reported pIC50 = ?
-- reply 6.23

###

system: stomach adenocarcinoma cell SNU638; assay: cells; details: Homo sapiens, SNU-638, 72 h, read-out: IC50 SNU638
Readout: IC50 (µM)
// return numeric value only (unit: µM, not printed)

-- ask Entry COc1cc([C@@H]2c3cc4c(cc3[C@@H](O[C@@H]3O[C@@H]5CO[C@@H](C)O[C@H]5[C@H](O)[C@H]3O)[C@H]3COC(=O)[C@H]23)OCO4)cc(OC)c1O [Etoposide, reference compound] : reported IC50 = ?
-- reply 0.48
